# Tested on: antibodies in sera from HCV-seropositive donors
# assay_method_text: ELISA with HCV antibody-positive sera (biotinylated peptides on streptavidin- or avidin-coated plates, unbiotinylated peptides coated directly)
# Format: binding, human
# condition_description: Table 8; serum 8248 (HCV); Avidin
Ends that are not written are not given here. * marks the point of attachment. Biotin = O=C1N[C@H]2[C@H](CS[C@H]2CCCCC(=O)*)N1

# substance, optical density (450 nm)
data = [
    ("Bio-Gly-Gly-Gly-Ser-Trp-Gly-Cys-Ala-Phe-Arg-Gln-Val-Cys-NH2 (Biotin-GGGSWGCAFRQVC-NH2; cysteine pairing not given here) [TM-HIV-2 Bio]", 0.046),
    ("ETWKKPDYEPPVVHGCPLPP", 0.905),
    ("PQRKTKRNTNRRPQDVKFPG", 2.287),
    ("Bio-Gly-Gly-Tyr-Asn-Lys-Arg-Lys-Arg-Ile-His-Ile-Gly-Pro-Gly-Arg-Ala-Phe-Tyr-Thr-Thr-Lys-Asn-Ile-Ile-Gly-NH2 (Biotin-GGYNKRKRIHIGPGRAFYTTKNIIG-NH2) [V3-mn Bio]", 0.048),
    ("IIPDREVLYREFDEMEECSQ", 0.047),
    ("Bio-Gly-Gly-Gly-Ile-Trp-Gly-Cys-Ser-Gly-Lys-Leu-Ile-Cys-NH2 (Biotin-GGGIWGCSGKLIC-NH2; cysteine pairing not given here) [TM-HIV-1 Bio]", 0.043),
]
